// provenance: patent US20190248900A1

Biological target: T1, M2-1
T1 construct: also called PD1 mutant M2-1
Test: ELISA, 1 ug/ml
Each item that follows carries a reported OD490.
Form rule: numeric answer, no unit written next to it.

Here are 2 binders together with their reported answers.
{"BINDER": "PD1-41C9 (antibody, V domains shown, scFv-phage in the screening ELISA; whole IgG in the other assays) VH: QMQLVESGGGVVQPGRSLRLSCAASGFTFSSYAMHWVRQAPGKGLEWVAVISYDGSNKYYADSVKGRFTISRDNSKNTLYLQMNRLRSEDTAVYYCTTTTFDSWGQGTLITVSS VL: DIVMTQTPLSLPVTPGEAASISCRSSQSLLDSEDGNTYLDWYLQKPGQSPQLLIYTLSHRASGVPDRFSGSGSGTDFTLKISRVAAEDVGLYYCLQRMGFPYTFGQGTKLDIK", "OD490": 3.4}
{"BINDER": "PD1-52E8 (antibody, V domains shown, scFv-phage in the screening ELISA; whole IgG in the other assays) VH: QVQLVQSGGNLVQPGRSLRLSCAASGFTFDDYAMHWVRQAPGKGLEWVSGISWNSGTPGYADSVQGRFTISRDNAKNSLYLQMNSLRAEDTAVYYCARGHNYLDSSYYDYWGQGTLVTVSS VL: SYELTQPLSLSVAPGQTARITCSGDALSKEYSYWYQQKPGQAPVLVMYKDSERPSGIPERFSGSSSGTTVTLTISGVQAEDEADYYCQSVDSSDTSVVFGGGTKLTVL", "OD490": 2.9}

query: Returns the measured OD490 for the input binder. Input: PD1-45D6 (antibody, V domains shown, scFv-phage in the screening ELISA; whole IgG in the other assays) VH: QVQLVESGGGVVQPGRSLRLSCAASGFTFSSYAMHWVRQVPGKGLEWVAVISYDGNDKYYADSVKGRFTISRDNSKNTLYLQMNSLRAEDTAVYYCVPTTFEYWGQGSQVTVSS VL: DIVMTQTPLSLPVTPGEAASISCRSSQSLLDSDDGKTYLDWYLQKPGQSPQLLIYTLSYRASGVPDRFSGSGSGTEFNLRISRVEAEDVGIYYCMQRVEFPFTFGQGTKLDIK
result: 3.9
